# method description: NCI Yeast Anticancer Drug Screen. Data for the cln2 rad14 strain (AID 165);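 further: 0% = growth equal to vehicle treated cultures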
# condition parameters: S. cerevisiae cln2 rad14 strain, at 50.0 µM, active compounds read high
The panel holds about 79,000 compounds, 15% with a hit somewhere; the sample as a whole holds those more often.
recorded endpoint: growth inhibition (%)
The reply should contain only the number, in %.

Some solved entries appear below for comparison.
| molecule | readout value |
| --- | --- |
| O=c1cc(C(O)C(O)C(O)C(O)CO)[nH]c(=O)[nH]1 (stereo unspecified) | 24.9 |
| COCCCCCC(=O)OC | 4.5 |

Prompt: State its growth inhibition: Cc1ccc(O)c(C(=O)C[n+]2ccccc2)c1
Response: 1.2
